For UniProt P47746, measured pIC50 is reported for the entries below.
Sequence (P47746 whole entry): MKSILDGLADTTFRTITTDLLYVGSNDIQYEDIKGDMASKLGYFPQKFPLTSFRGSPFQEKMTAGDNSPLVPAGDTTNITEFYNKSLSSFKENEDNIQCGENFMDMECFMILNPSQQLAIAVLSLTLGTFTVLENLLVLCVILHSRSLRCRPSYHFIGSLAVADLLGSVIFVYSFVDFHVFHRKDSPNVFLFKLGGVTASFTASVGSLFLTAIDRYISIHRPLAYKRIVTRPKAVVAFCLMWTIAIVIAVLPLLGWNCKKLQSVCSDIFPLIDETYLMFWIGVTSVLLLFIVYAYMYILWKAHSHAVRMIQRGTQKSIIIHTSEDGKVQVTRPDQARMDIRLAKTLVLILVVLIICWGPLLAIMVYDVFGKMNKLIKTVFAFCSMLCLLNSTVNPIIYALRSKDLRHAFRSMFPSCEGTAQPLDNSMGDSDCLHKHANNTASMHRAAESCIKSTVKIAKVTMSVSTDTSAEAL
pIC50: −log10 of the molar value.

Examples with answers:
NC(=O)[C@H](CO)N/C(=N\S(=O)(=O)c1ccc(Cl)cc1)N1C[C@H](c2ccccc2)C(c2ccc(Cl)cc2)=N1    > 7.00
NC(=O)CN/C(=N\S(=O)(=O)c1ccc(Cl)cc1)N1C[C@H](c2ccccc2)C(c2ccc(Cl)cc2)=N1    > 7.00
CC(C)[C@H](N/C(=N\S(=O)(=O)c1ccc(Cl)cc1)N1C[C@@H](c2ccccc2)C(c2ccc(Cl)cc2)=N1)C(N)=O    < 6.00

Fill in the blank: the reported pIC50 of NC(=O)CN/C(=N\S(=O)(=O)c1ccc(Cl)cc1)N1C[C@@H](c2ccccc2)C(c2ccc(Cl)cc2)=N1 is ____. < 6.00
